test: Cytotoxicity against mammalian NCTC cells (MTT assay, 48 h); format: cell-based; conditions: mouse, NCTC murine fibroblasts, highest tested concentration 200 μM, read-out: NCTC Mammalian Cell CC50 (μM) ± SD

- Compound: "C=C1C[C@@]23CC[C@H]4[C@@](C)(CCC[C@@]4(C)C(=O)O)[C@@H]2CC[C@@H]1C3 [Compound 3, Ent-kaur-16-en-19-oic acid]"
  CC50 at 48 h: "> 200 µM"
- Compound: "COc1c(O)cc2oc(-c3ccc(O)cc3)cc(=O)c2c1O [Compound 4, Hispidulin]"
  CC50 at 48 h: "> 200 µM"

###

Each entry below carries its recorded CC50 at 48 h.
assay: Cytotoxicity against mammalian NCTC cells (MTT assay, 48 h); type: cell-based; conditions: mouse, NCTC cells (clone L929) fibroblasts, NCTC murine fibroblasts, highest tested concentration 200 μM, read-out: NCTC Mammalian Cell CC50 (μM) ± SD

- Molecule: "COC1C[C@@H](CC[C@@H]2[C@@H](C)CC=C3C(CO)(CO)CCC[C@@]32C)CO1 (relative stereo) [Compound 1]"
  CC50 at 48 h: "> 200 µM"
- Molecule: "O=C(Cn1ccnc1[N+](=O)[O-])NCc1ccccc1 [Benznidazole, benznidazole, reference compound]"
  CC50 at 48 h: "> 200 µM"
- Molecule: "C[C@H]1CC=C2C(CO)(CO)CCC[C@]2(C)[C@@H]1CC[C@H](CCO)COC(=O)/C=C/c1ccc(O)cc1 [Compound 2, gaudichaudol C]"
  CC50 at 48 h: "> 200 µM"
